All values here come from paper PMC6862289.

- method.summary: Toxicokinetics of ZEN-14G in rats after oral and intravenous administration (plasma LC-MS/MS, non-compartmental analysis)
- Format: in vivo, Wistar rats
- measurement.context: both sexes, Wistar, rat, in vivo, iv, 0.75 mg/kg body weight, read-out: AUC0-infinity
measure: AUC(0-inf) (ng·h/mL)
Provide only the numeric value, understood in ng·h/mL.

## Task Which AUC(0-inf) value belongs to CC1CCCC(=O)CCC/C=C/c2cc(OC3OC(CO)C(O)C(O)C3O)cc(O)c2C(=O)O1 (stereo not shown) [ZEN-14G, Zearalenone-14-glucoside] ?
## Result 1.8

====

- method.summary: Toxicokinetics of ZEN-14G in rats after oral and intravenous administration (plasma LC-MS/MS, non-compartmental analysis)
- Format: in vivo, Wistar rats
- measurement.context: both sexes, Wistar, rat, in vivo, iv, 0.75 mg/kg, i.v., 0.75 mg/kg body weight, read-out: VZ (apparent volume of distribution), as printed in text
- Experimental: The validated LC-MS/MS method was eligible for the toxicokinetic characterization of ZEN-14G in rats. The obtained data (above the LOQ) were analyzed via non-compartmental analysis using WinNonlin 6.3 software (Pharsight Co. Mountain View, CA, USA). The area under the plasma concentration–time curve (AUC) was obtained using the trapezoidal rule with extrapolation to infinity. […]
measure: Vd (L/kg)
Provide only the numeric value, understood in L/kg.

## Task Which Vd value belongs to CC1CCCC(=O)CCC/C=C/c2cc(OC3OC(CO)C(O)C(O)C3O)cc(O)c2C(=O)O1 (stereo not shown) [ZEN-14G, Zearalenone-14-glucoside] ?
## Result 87.2
